# Tested on: SK-MEL-5 melanoma
# test summary: NCI tumour cell line growth inhibition, 48 h
GI50: recorded values

stdin: State recorded GI50 with SK-MEL-5 melanoma, entry COc1ccc([As]=[As]c2ccc(OC)c(NCS(=O)(=O)O)c2)cc1NCS(=O)(=O)O (stereo not drawn) , no comment.
stdout: 1.86 µM

stdin: Report value: GI50, system: SK-MEL-5 melanoma, compound: CCO.CCO.Oc1ccc(Nc2ncns2)cc1.Oc1ccc(Nc2ncns2)cc1.[Ti]
stdout: 23.4 µM

stdin: // fetch GI50 for c1ccc2nc3c(cc2c1)Sc1cc2ccccc2[n+]2c1N3CC2 ; system: SK-MEL-5 melanoma
stdout: 3.66 µM
